B1: NET1 (parent)
chain: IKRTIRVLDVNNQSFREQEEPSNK

- Variants of: B1
- METHOD DESCRIPTION: protein stability index of a GFP-peptide fusion (GPS, HEK-293T) (PSI 1-6); higher = more stable;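 further: lentivirally expressed fusions sorted by FACS into six bins by GFP to DsRed ratio, PSI derived from sequencing read proportions per bin multiplied by bin number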
- EXPERIMENTAL PARAMETERS: c terminus: a fixed tail appended
Class definitions on protein stability index: label 0 (below 3), label 1 (3 to below 4), label 2 (4 or more)

(Q) # classify by protein stability index band: E17S
(A) label 1

(Q) # classify by protein stability index band: R6Y
(A) label 0
